# System: PBMC from HLA-A*02:01 Chagas disease patients and healthy donors
# measurement-description: Cytokine secretion test (Bio-Plex multiplex immunoassay) in PBMC supernatants
# Type: cell-based, human
# cond: PBMC of patient CCC I 770; 1 μM peptide, 30 h; non-peptide control subtracted
readout-type: IL6 (pg/mL)
The figure you give is taken to be in pg/mL; do not add the unit.

record-sequence | tested-system | readout-type | recorded-value
ALQVTNHRYL [TcCA-2_657-666] | PBMC from HLA-A*02:01 Chagas disease patients and healthy donors | IL6 | 1
AAAGDKLSL [TcCA-2_273-281] | PBMC from HLA-A*02:01 Chagas disease patients and healthy donors | IL6 | 22
TVFDASRSTV [TcCA-2_442-451] | PBMC from HLA-A*02:01 Chagas disease patients and healthy donors | IL6 | 3

Read the next record carefully.
Consider the sequence ALRNLRVFL [TcCA-2_607-615] and give its measured IL6.
49

* * *

IL6 values for the sequences below.
# System: PBMC from HLA-A*02:01 Chagas disease patients and healthy donors
# measurement-description: Cytokine secretion test (Bio-Plex multiplex immunoassay) in PBMC supernatants
# Format: cell-based, human
# cond: PBMC of patient IND 365; 1 μM peptide, 30 h; non-peptide control subtracted
The figure you give is taken to be in pg/mL; do not add the unit.

// below: answered sequences
record-sequence | tested-system | IL6 [pg/mL]
ALRNLRVFL [TcCA-2_607-615] | PBMC from HLA-A*02:01 Chagas disease patients and healthy donors | 23
TVFDASRSTV [TcCA-2_442-451] | PBMC from HLA-A*02:01 Chagas disease patients and healthy donors | 7
ALQVTNHRYL [TcCA-2_657-666] | PBMC from HLA-A*02:01 Chagas disease patients and healthy donors | 10

Read the next record carefully.
Consider the sequence AAAGDKLSL [TcCA-2_273-281] and give its measured IL6.
43

* * *

# Tested on: PBMC from HLA-A*02:01 Chagas disease patients and healthy donors
# measurement-description: Cytokine secretion test (Bio-Plex multiplex immunoassay) in PBMC supernatants
# Assay type: cell-based, human
# cond: PBMC of patient CCC I 770; 1 μM peptide, 30 h; non-peptide control subtracted
readout-type: TNFα (pg/mL)
The figure you give is taken to be in pg/mL; do not add the unit.

record-sequence | tested-system | TNFα [pg/mL]
ALRNLRVFL [TcCA-2_607-615] | PBMC from HLA-A*02:01 Chagas disease patients and healthy donors | 16

Consider the sequence ALQVTNHRYL [TcCA-2_657-666] and give its measured TNFα.
-6

Consider the sequence AAAGDKLSL [TcCA-2_273-281] and give its measured TNFα.
4

Consider the sequence TVFDASRSTV [TcCA-2_442-451] and give its measured TNFα.
-11

* * *

# Test system: PBMC from HLA-A*02:01 Chagas disease patients and healthy donors
# measurement-description: Cytokine secretion test (Bio-Plex multiplex immunoassay) in PBMC supernatants
# Format: cell-based, human
# cond: PBMC of subject HD 340; 1 μM peptide, 30 h; non-peptide control subtracted
IL6 values for the sequences below.
The figure you give is taken to be in pg/mL; do not add the unit.

record-sequence | IL6 [pg/mL]
ALQVTNHRYL [TcCA-2_657-666] | 22
AAAGDKLSL [TcCA-2_273-281] | 9
TVFDASRSTV [TcCA-2_442-451] | 11

Read the next record carefully.
Consider the sequence ALRNLRVFL [TcCA-2_607-615] and give its measured IL6.
6
